The values you see were collected from patent US10183949B2.

# TARGET SYSTEM: Human autotaxin enzyme (Homo sapiens, UniProt Q13822)
# Construct: purchased R&D System
# PROTOCOL DESCRIPTION: Evaluation of autotaxin inhibitor, 18:0 Lyso PC / choline assay (Test Example 2)
# Format: biochemical
# CONDITION INFO: human autotaxin enzyme, 18:0 Lyso PC substrate, choline assay, room temperature 2 hours; read-out: Inhibitor activity (IC50)
# Protocol: Solution B containing 100 mM Tris-HCl buffer (pH7.5), 150 mM NaCl, 5 mM MgCl2, and 0.05% Triton X-100 was prepared. Human autotaxin enzyme (purchased from R&D System) was diluted with Solution B, and 2.5 μl of which was added to a solution of test compound in DMSO. […] The fluorescent dye Resorufin, which was produced by the reaction, was detected. The fluorescence was detected using ViewLux (PerkinElmer, Inc.) with a excitation wavelength of 531 nm and a fluorescence wavelength of 598 nm. […]
# Lookup of reported IC50 keyed by entry

Please review the following examples before continuing.
{"columns": ["SMILES STR", "READOUT KIND", "RESULT"],
 "data": [
  ["CCCCCc1nc(-c2ccc(Cl)cc2)cc(=O)n1CC(=O)NC(C)(C)C(=O)OC", "IC50", "10 to 100 nM"],
  ["CCCCCc1nc(-c2ccc(Cl)cc2)cc(=O)n1CC(=O)NCCCC(=O)O", "IC50", "< 10 nM"],
  ["CCCCCc1nc(-c2ccc(Cl)cc2)cc(=O)n1CC(=O)N1CCC(c2nc(=O)o[nH]2)CC1", "IC50", "10 to 100 nM"],
  ["CCCCCc1nc(-c2ccc(Cl)cc2)cc(=O)n1CC(=O)NCC(C)(C)O", "IC50", "10 to 100 nM"],
  ["CCCCCc1nc(-c2ccc(Cl)cc2)cc(=O)n1Cc1ccc(C(=O)O)cc1", "IC50", "100 to 1000 nM"]
]}

Measured IC50 for this entry `COC(=O)Nc1cc(Cl)ccc1-c1cc(=O)n(CC(=O)NCC2(CO)CC2)c(C)n1` on Human autotaxin enzyme (Homo sapiens, UniProt Q13822): 10 to 100 nM

Hey, Human autotaxin enzyme (Homo sapiens, UniProt Q13822) data for `CCCCCc1nc(-c2ccc(Cl)cc2)cc(=O)n1CC(=O)NC1(C#N)CC1` : IC50 came out at 10 to 100 nM

Query `CCCOCc1nc(-c2ccc(Cl)cc2)cc(=O)n1CC(=O)NC1(C#N)CC1` on Human autotaxin enzyme (Homo sapiens, UniProt Q13822); IC50 returned: 100 to 1000 nM

* * *

Listed next: entries and their corresponding IC50.
# TARGET SYSTEM: Human autotaxin enzyme (Homo sapiens, UniProt Q13822)
# Construct: purchased R&D System
# PROTOCOL DESCRIPTION: Evaluation of autotaxin inhibitor, 18:0 Lyso PC / choline assay (Test Example 2)
# Format: biochemical
# CONDITION INFO: human autotaxin enzyme, 18:0 Lyso PC substrate, choline assay, room temperature 2 hours; read-out: Inhibitor activity (IC50)
# Description: Solution B containing 100 mM Tris-HCl buffer (pH7.5), 150 mM NaCl, 5 mM MgCl2, and 0.05% Triton X-100 was prepared. Human autotaxin enzyme (purchased from R&D System) was diluted with Solution B, and 2.5 μl of which was added to a solution of test compound in DMSO. […] The fluorescent dye Resorufin, which was produced by the reaction, was detected. The fluorescence was detected using ViewLux (PerkinElmer, Inc.) with a excitation wavelength of 531 nm and a fluorescence wavelength of 598 nm. […]

Worked set:
{"columns": ["COMPOUND", "READOUT KIND", "RESULT"],
 "data": [
  ["COC(=O)Nc1cc(Cl)ccc1-c1cc(=O)n(CC(=O)NC(C)(C)CO)c(C)n1", "IC50", "< 10 nM"],
  ["O=C(Cn1c(CCCC(F)(F)F)nc(-c2ccc(C(F)(F)F)cc2)cc1=O)NC1(c2ccccn2)CC1", "IC50", "10 to 100 nM"],
  ["O=C(O)c1cccc(Cn2c(CCCC(F)(F)F)nc(-c3ccc(Cl)cc3)cc2=O)n1", "IC50", "100 to 1000 nM"],
  ["Cc1nc(-c2ccc(Cl)cc2NC(=O)C(C)(C)C)cc(=O)n1CC(=O)Nc1cccnc1O", "IC50", "10 to 100 nM"],
  ["Cc1noc(CNC(=O)Cn2c(CCCC(F)(F)F)nc(-c3ccc(Cl)cc3)cc2=O)n1", "IC50", "10 to 100 nM"]
]}

Reported IC50 ( `O=C(c1cccc(Cn2c(CCCC(F)(F)F)nc(-c3ccc(Cl)cc3)cc2=O)c1)N(CCO)CCO` ) = 100 to 1000 nM

Per the records, this compound ( `CC(C)(O)CNC(=O)Cn1c(COCC(F)(F)F)nc(-c2ccc(Cl)cc2)cc1=O` ) has IC50 equal to 10 to 100 nM

// `O=C(Cn1c(CCCC(F)(F)F)nc(-c2ccc(Cl)cc2)cc1=O)NCCOCCOCCO` : IC50 value = 100 to 1000 nM
